tested on: Escherichia coli; assay: Toxicity in Escherichia coli ATCC 43894 up to 32 uM measured after 16 hrs; format: organism-based

Record Smiles	Activity
O=C(O)c1cnc2c(F)cc(F)cc2c1O	Non-Toxic
Cc1nc(-c2ccccc2)c(O)cc1C(=O)O	Non-Toxic
Cc1cc(C(=O)O)c(O)c(Cc2ccccc2)n1	Non-Toxic
O=C(O)c1cc(-c2ccccc2)ncc1O	Non-Toxic
COc1cccc(-c2cc(C(=O)[O-])c(O)c[n+]2C)c1	Non-Toxic
O=C(O)c1cc(-c2ccc(F)cc2F)ccc1O	Non-Toxic
C[n+]1cc(O)c(C(=O)[O-])cc1-c1ccccc1	Non-Toxic
O=C(O)c1cc(O)c(-c2ccccc2)nc1-c1ccccc1	Non-Toxic
O=C(O)c1cc(O)cnc1-c1ccccc1	Non-Toxic
O=C(O)c1cc(-c2ccccc2)nc(-c2ccccc2)c1O	Non-Toxic
O=C(O)c1ccnc(Cc2ccccc2)c1O	Non-Toxic
COc1cccc(-c2cc(C(=O)O)c(O)cn2)c1	Non-Toxic
O=C(O)c1ccnc(-c2ccccc2)c1O	Non-Toxic

###

test system: Streptococcus pyogenes; assay: Potentiation of methicillin-induced antibacterial activity against Streptococcus pyogenes ATCC 14289 assessed as minimum modulatory concentration up to 32 uM measured after 16 hrs in presence of MIC/4 methicillin; assay type: functional; conditions: ATCC 14289, 16 h, read-out: MEC
Recorded Metric: log10 of minimal effective concentration (log10 of the value in µM)

Molecule	log10 of minimal effective concentration
O=C(O)c1ccnc(-c2ccccc2)c1O	-0.30
O=C(O)c1cc(O)c(-c2ccccc2)nc1-c1ccccc1	0.00
O=C(O)c1cnc(-c2ccccc2)c(O)c1	0.00
O=C(O)c1cc(-c2ccccc2)nc(-c2ccccc2)c1O	0.30
O=C(O)c1cc(-c2ccc(F)cc2F)ncc1O	0.30
O=C(O)c1cc(-c2ccccc2)ncc1O	1.20
O=C(O)c1cc(O)cnc1-c1ccccc1	0.00
O=C(O)c1cnc2c(F)cc(F)cc2c1O	0.00
Cc1nc(-c2ccccc2)c(O)cc1C(=O)O	0.60
O=C(O)c1cc(-c2ccc(F)cc2F)ccc1O [DIFLUNISAL]	1.20

###

system: Staphylococcus aureus; assay: Potentiation of ciprofloxacin-induced antibacterial activity against Staphylococcus aureus ATCC 33592 assessed as minimum modulatory concentration up to 32 uM measured after 16 hrs in presence of MIC/4 ciprofloxacin; assay type: functional; conditions: ATCC 33592, 16 h, read-out: MEC
We begin with a simple list: items and their reported minimal effective concentration.
Recorded Metric: minimal effective concentration

Compound	Result
O=C(O)c1cc(-c2ccc(F)cc2F)ccc1O [DIFLUNISAL]	> 32 µM
O=C(O)c1cnc(-c2ccccc2)c(O)c1	> 32 µM
COc1cccc(-c2cc(C(=O)[O-])c(O)c[n+]2C)c1	> 32 µM
O=C(O)c1cc(-c2ccc(F)cc2F)ncc1O	16 µM
COc1cccc(-c2cc(C(=O)O)c(O)cn2)c1	> 32 µM
Cc1cc(C(=O)O)c(O)c(Cc2ccccc2)n1	> 32 µM
O=C(O)c1cc(O)cnc1-c1ccccc1	> 32 µM
O=C(O)c1cc(O)c(-c2ccccc2)nc1-c1ccccc1	16 µM

###

We begin with a simple list: items and their reported minimal effective concentration.
tested on: Staphylococcus aureus; experiment: Potentiation of erythromycin-induced antibacterial activity against Staphylococcus aureus ATCC 33592 assessed as minimum modulatory concentration up to 32 uM measured after 16 hrs in presence of MIC/4 erythromycin; type: functional; conditions: ATCC 33592, 16 h, read-out: MEC

Record Smiles	Target Entity	minimal effective concentration
COc1cccc(-c2cc(C(=O)[O-])c(O)c[n+]2C)c1	Staphylococcus aureus	> 32 µM
O=C(O)c1cc(-c2ccc(F)cc2F)ncc1O	Staphylococcus aureus	4 µM
COc1cccc(-c2cc(C(=O)O)c(O)cn2)c1	Staphylococcus aureus	> 32 µM
C[n+]1ccc(C(=O)[O-])c(O)c1Cc1ccccc1	Staphylococcus aureus	> 32 µM
C[n+]1cc(O)c(C(=O)[O-])cc1-c1ccccc1	Staphylococcus aureus	> 32 µM
O=C(O)c1cc(-c2ccccc2)nc(-c2ccccc2)c1O	Staphylococcus aureus	2 µM
O=C(O)c1cc(O)c(-c2ccccc2)nc1-c1ccccc1	Staphylococcus aureus	8 µM
O=C(O)c1cc(-c2ccc(F)cc2F)ccc1O	Staphylococcus aureus	> 32 µM

###

test system: Macrophage cell line; test: Cytotoxicity against human PBMC-differentiated macrophages treated for 24 hrs followed by compound washout and measured after 48 hrs by MTT assay; type: cell-based
pIC50: −log10 of the molar value.

Record Smiles	Comparison Sign	pIC50
COc1cccc(-c2cc(C(=O)O)c(O)cn2)c1	=	4.05
Cc1nc(-c2ccccc2)cc(C(=O)O)c1O	=	4.04
COc1cccc(-c2cc(C(=O)[O-])c(O)c[n+]2C)c1	=	4.02
O=C(O)c1cc(O)c(-c2ccccc2)nc1-c1ccccc1	=	4.04
O=C(O)c1cc(-c2ccccc2)ncc1O	=	4.07
O=C(O)c1ccnc(Cc2ccccc2)c1O	<	4.00

###

We begin with a simple list: items and their reported minimal effective concentration.
tested on: Streptococcus pyogenes; test: Potentiation of geneticin-induced antibacterial activity against Streptococcus pyogenes ATCC 14289 assessed as minimum modulatory concentration up to 32 uM measured after 16 hrs in presence of MIC/4 geneticin; assay type: functional; conditions: ATCC 14289, 16 h, read-out: MEC

Record Smiles	Target Entity	minimal effective concentration
O=C(O)c1ccnc(Cc2ccccc2)c1O	Streptococcus pyogenes	> 32 µM
Cc1cc(C(=O)O)c(O)c(Cc2ccccc2)n1	Streptococcus pyogenes	> 32 µM
Cc1nc(-c2ccccc2)cc(C(=O)O)c1O	Streptococcus pyogenes	> 32 µM
C[n+]1ccc(C(=O)[O-])c(O)c1Cc1ccccc1	Streptococcus pyogenes	> 32 µM
C[n+]1cc(O)c(C(=O)[O-])cc1-c1ccccc1	Streptococcus pyogenes	> 32 µM
O=C(O)c1cc(O)c(-c2ccccc2)nc1-c1ccccc1	Streptococcus pyogenes	2 µM
Cc1nc(-c2ccccc2)c(O)cc1C(=O)O	Streptococcus pyogenes	2 µM
COc1cccc(-c2cc(C(=O)[O-])c(O)c[n+]2C)c1	Streptococcus pyogenes	> 32 µM
COc1cccc(-c2cc(C(=O)O)c(O)cn2)c1	Streptococcus pyogenes	> 32 µM
O=C(O)c1cnc2c(F)cc(F)cc2c1O	Streptococcus pyogenes	4 µM
O=C(O)c1cc(-c2ccc(F)cc2F)ccc1O	Streptococcus pyogenes	> 32 µM

###

We begin with a simple list: items and their reported minimal effective concentration.
system: Staphylococcus aureus; test: Potentiation of tetracycline-induced antibacterial activity against Staphylococcus aureus ATCC 33592 assessed as minimum modulatory concentration up to 32 uM measured after 16 hrs in presence of MIC/4 tetracycline; type: functional; conditions: ATCC 33592, 16 h, read-out: MEC
Recorded Metric: minimal effective concentration

Record Smiles	Recorded Metric	Result
COc1cccc(-c2cc(C(=O)O)c(O)cn2)c1	minimal effective concentration	> 32 µM
O=C(O)c1ccnc(Cc2ccccc2)c1O	minimal effective concentration	> 32 µM
Cc1cc(C(=O)O)c(O)c(Cc2ccccc2)n1	minimal effective concentration	> 32 µM
O=C(O)c1cc(-c2ccc(F)cc2F)ccc1O	minimal effective concentration	> 32 µM
COc1cccc(-c2cc(C(=O)[O-])c(O)c[n+]2C)c1	minimal effective concentration	> 32 µM
O=C(O)c1cc(-c2ccccc2)ncc1O	minimal effective concentration	> 32 µM
C[n+]1ccc(C(=O)[O-])c(O)c1Cc1ccccc1	minimal effective concentration	> 32 µM
C[n+]1cc(O)c(C(=O)[O-])cc1-c1ccccc1	minimal effective concentration	> 32 µM

Cited source for all entries: ChEMBL document CHEMBL4257522
